# Test system: MS2 coat protein
# PROCEDURE_DETAILS: apparent KD of MS2 coat protein; designed switch direction (-1 OFF switch, 1 ON switch): 1; higher = weaker reporter binding
# CONDITION_SET: input ligand: FMN 200 uM
QUANTITY_KIND: apparent KD of MS2 coat protein (nM)
# number only, unit nM dropped from output

Some entries whose results are on file:
CGCAAAGUGUGAGGAUAUUCACACAUGAGGAUCACCCAUGUGACGGUUCCGGCCAGAGGAGAGCAGGAGAAGGCACAACGCGAG [Eternabot solution 5] (Eterna round: R96, puzzle: Same State NG 2)
36.1
UUAAUGAUGUAAGGAUAUACAUGAGGAUUUCUCGUAGAAGGUACAAGACAUGAGGAUCACCCAUGUGUCGCUCGAAAGAGCGUA [Mat - Same State NG 1 - JL mod - D20] (Eterna round: R96, puzzle: Same State NG 1)
282

Here is another sequence to look at.
// recorded apparent KD of MS2 coat protein for CUGUAUCGCGGAGGAUAUGGGCUGAGACCAGGGCAACCCUGGUCAACAUGAGGAUCACCCAUGUCCCAGAAGGCCGCGAUGCUA [Diaraenve] (Eterna round: R96, puzzle: Same State NG 2) : 19.7

Cited source: the supplement of paper PMC9170038
